Known melting point of a selection of compounds

[
  {
    "structure.smiles.string": "O=C(O)c1ccc(NC(=O)[C@H](Cc2ccccc2)NC(=O)c2cc(-c3ccc(Cl)cc3)[nH]n2)cc1",
    "melting point": "174 to 176 °C (dec.)"
  },
  {
    "structure.smiles.string": "O=C(O)c1ccc(NC(=O)[C@H](Cc2ccccc2)NC(=O)c2cc(-c3cccc(Cl)c3F)[nH]n2)cc1",
    "melting point": "185 to 187 °C (dec.)"
  },
  {
    "structure.smiles.string": "O=C(O)c1cc2cc(NC(=O)[C@H](Cc3cccnc3)NC(=O)c3cc(-c4cccc(Cl)c4F)n[nH]3)ccc2[nH]1",
    "melting point": "175 to 177 °C (dec.)"
  },
  {
    "structure.smiles.string": "O=C(O)c1ccc(NC(=O)[C@H](Cc2ccccc2)NC(=O)c2cc(-c3c(F)cc(Cl)cc3F)[nH]n2)cc1",
    "melting point": "123 to 125 °C (dec.)"
  },
  {
    "structure.smiles.string": "CN1CCN(C(=O)Nc2ccc(C[C@H](NC(=O)c3cc(-c4cccc(Cl)c4F)[nH]n3)C(=O)Nc3ccc4[nH]c(C(=O)O)cc4c3)cc2)CC1",
    "melting point": "203 to 205 °C (dec.)"
  }
]
